Cited source: patent US20240343803A1

The entries below are paired with their reported % IC50 to SO35-hIgG1.
# testedOn: T1, human PVRIG-mFc protein (Acro, PVG-H5253) (human, UniProt Q6DKI7 41-171, limits assumed)
# T1 construct: extracellular domain; Bought protein; also called PVRIG-ECD-mFc; not shown: mouse Fc tag of the bought protein
# T1 sequence (looked up): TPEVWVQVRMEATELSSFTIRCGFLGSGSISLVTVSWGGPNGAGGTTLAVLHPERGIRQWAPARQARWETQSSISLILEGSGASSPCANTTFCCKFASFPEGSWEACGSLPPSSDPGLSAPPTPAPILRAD
# assayProtocol: FACS blocking of PVRIG-mFc binding to CHO-K1-CD112 cells; competitor CD112

| binder | unitOfMeasure | % IC50 to SO35-hIgG1 |
| --- | --- | --- |
| PVRIG-A118-H3 (Fc fusion, VHH-human IgG1 Fc format is stated for the parental VHH antibodies; not restated for the humanized variants; also called A118.VH3; not shown: human IgG1 hinge-CH2-CH3 (Fc)) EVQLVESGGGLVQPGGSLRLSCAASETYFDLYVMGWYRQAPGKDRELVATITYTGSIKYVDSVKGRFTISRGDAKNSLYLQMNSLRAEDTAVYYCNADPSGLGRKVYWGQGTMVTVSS | % | 98.8 |
| PVRIG-A118-H5 (Fc fusion, VHH-human IgG1 Fc format is stated for the parental VHH antibodies; not restated for the humanized variants; also called A118.VH5; not shown: human IgG1 hinge-CH2-CH3 (Fc)) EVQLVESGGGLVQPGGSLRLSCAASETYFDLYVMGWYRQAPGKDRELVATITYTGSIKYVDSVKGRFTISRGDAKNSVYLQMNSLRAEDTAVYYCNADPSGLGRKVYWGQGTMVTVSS | % | 97.4 |
| PVRIG-A105 (Fc fusion, Alpaca VHH expressed as VHH-hinge-CH2-CH3 of human IgG1; not shown: human IgG1 hinge-CH2-CH3 (Fc)) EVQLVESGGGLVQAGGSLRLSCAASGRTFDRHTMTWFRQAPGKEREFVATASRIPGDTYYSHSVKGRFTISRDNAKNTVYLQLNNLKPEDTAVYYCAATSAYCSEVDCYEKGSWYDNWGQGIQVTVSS | % | 88.3 |
| PVRIG-A105-H5 (Fc fusion, VHH-human IgG1 Fc format is stated for the parental VHH antibodies; not restated for the humanized variants; also called A105.VH5; not shown: human IgG1 hinge-CH2-CH3 (Fc)) EVQLVESGGGLVQPGGSLRLSCAASGRTFDRHTMTWFRQAPGKEREFVATASRIPGDTYYVDSVKGRFTISRDNAKNSLYLQMNSLRAEDTAVYYCAATSAYCSEVDCYEKGSWYDNWGQGIQVTVSS | % | 93.4 |
| PVRIG-A50-H1b (Fc fusion, VHH-human IgG1 Fc format is stated for the parental VHH antibodies; not restated for the humanized variants; also called A50.VH1b; not shown: human IgG1 hinge-CH2-CH3 (Fc)) EVQLVESGGGLVQPGGSLRLSCAASGFTFSYYDMSWVRQAPGKGLEWVSTINSDGGRTSYVDSVKGRFTISRDNSKNTLYLQMNSLRAEDTAVYYCVEGDPHNFGLESLSLRDFGSWGQGTMVTVSS | % | 73.7 |
| PVRIG-A105-H4 (Fc fusion, VHH-human IgG1 Fc format is stated for the parental VHH antibodies; not restated for the humanized variants; also called A105.VH4; not shown: human IgG1 hinge-CH2-CH3 (Fc)) EVQLVESGGGLVQPGGSLRLSCAASGRTFDRHTMTWFRQAPGKEREFVATASRIPGDTYYSHSVKGRFTISRDNAKNSLYLQMNSLRAEDTAVYYCAATSAYCSEVDCYEKGSWYDNWGQGTMVTVSS | % | 93.2 |
| PVRIG-A105-H3 (Fc fusion, VHH-human IgG1 Fc format is stated for the parental VHH antibodies; not restated for the humanized variants; also called A105.VH3; not shown: human IgG1 hinge-CH2-CH3 (Fc)) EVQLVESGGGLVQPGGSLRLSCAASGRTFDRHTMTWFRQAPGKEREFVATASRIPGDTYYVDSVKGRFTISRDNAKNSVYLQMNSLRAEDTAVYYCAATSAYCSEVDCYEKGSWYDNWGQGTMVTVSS | % | 91.9 |
| PVRIG-A118-H7 (Fc fusion, VHH-human IgG1 Fc format is stated for the parental VHH antibodies; not restated for the humanized variants; also called A118.VH7; not shown: human IgG1 hinge-CH2-CH3 (Fc)) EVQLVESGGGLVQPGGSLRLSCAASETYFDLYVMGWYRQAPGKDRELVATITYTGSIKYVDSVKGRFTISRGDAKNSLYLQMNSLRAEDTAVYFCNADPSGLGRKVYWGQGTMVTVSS | % | 97.1 |
| PVRIG-A118-H2 (Fc fusion, VHH-human IgG1 Fc format is stated for the parental VHH antibodies; not restated for the humanized variants; also called A118.VH2; not shown: human IgG1 hinge-CH2-CH3 (Fc)) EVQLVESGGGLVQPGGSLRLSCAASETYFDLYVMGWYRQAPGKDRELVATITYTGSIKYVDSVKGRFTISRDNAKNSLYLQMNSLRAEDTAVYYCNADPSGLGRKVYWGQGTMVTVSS | % | 109 |
| PVRIG-A118-H1 (Fc fusion, VHH-human IgG1 Fc format is stated for the parental VHH antibodies; not restated for the humanized variants; also called A118.VH1; not shown: human IgG1 hinge-CH2-CH3 (Fc)) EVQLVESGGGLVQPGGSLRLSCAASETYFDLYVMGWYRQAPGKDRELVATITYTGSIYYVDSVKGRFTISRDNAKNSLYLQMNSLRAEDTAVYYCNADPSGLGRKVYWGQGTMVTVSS | % | 95.4 |
| PVRIG-A50-H1e (Fc fusion, VHH-human IgG1 Fc format is stated for the parental VHH antibodies; not restated for the humanized variants; also called VH1e; not shown: human IgG1 hinge-CH2-CH3 (Fc)) EVQLVESGGGLVQPGGSLRLSCAASGFTFSYYDMSWVRQAPGKGLEWVSTINSNAGRTSYVDSVKGRFTISRDNSKNTLYLQMNSLRAEDTAVYYCVEGDPHNFGLESLSLRDFGSWGQGTMVTVSS | % | 101 |
